Values were extracted from the nanobody polyreactivity screen of Harvey et al. (2022).

# Method: yeast display, Sf9 membrane polyspecificity reagent, FACS + sequencing; frameworks hold sequencing errors
Metric: polyreactivity (PSR sort gate)

- QVQLVESGGGLVQAGGSLRLSCAASGFIFKYYAMGWYRQAPGKERELVAAISRRGGSTFYADSVKGRFTISRDNAKNTVYLQMNSLKPEDTAVYYCAAYYYYSAYGDDYWGQGTQVTVSS: high polyreactivity
- QVQLVESGGGLVQAGGSLRLSCAASGSIFYHYAMGWYRQAPGKEWELVAAITITGGSTYYADSVKGRFTISRDNAKNTVYLQMNSLKPEDTAVYYCAAEGWYGYQWFDYWGQGTQVTVSS: high polyreactivity
- QVQLVESGGGLVQAGGSLRLSCAASGRTFKPYAMGWYRQAPGKERELVAAISTRGGSTYYADSVKGRFTISRDNAKNTVYLQMNSLKPEDTAVYYCAATQPGRDYDYWGQGTQVTVSS: low polyreactivity
- QVQLVESGGGLVQAGGSLRLSCAASGLTFGSNTMGWYRQAPGKERELVAAITSNGGSTYYADSVKRRFTISRDYAKNTVYLQMNSLKPEDTAVYYCAARSYDGYYRYYYWGQGTQVTVSS: low polyreactivity

// moving on: another record for polyreactivity (PSR sort gate)
Request: I would be grateful if you could share the reported polyreactivity (PSR sort gate) for QVQLVESGGGLVQAGGSLRLSCAASGFTFYTYAMGWYRQEPGKEREMVATISGSGGDTNYADSVKGRFTISRDNAKNTGYLQMDSLKPEDTAVYYCAAETQSVWSGFYYWGQGTQVTVSS .
Response: low polyreactivity

----------
# Method: yeast display, Sf9 membrane polyspecificity reagent, FACS + sequencing; frameworks hold sequencing errors
Metric: polyreactivity (PSR sort gate)

* QVQLVESGGGLVQAGGSLRLSCAASGLTFEYYTMGWYRQAPGKERELVAAITSSGGSTYYADSVKGRFTISRDNAKNTVYLQMNSLKPEDTAVYYCNAYWTYEFPSYDYWGQGTQVTVSS | low polyreactivity
* QVQLGESGGGLVQAGGSVRLICAASGGIFEWNAMGWYRQAPGKERELDAAISNTGGSTSYADSVKGRFTISRDNAMNSVYLQMNCLKPEDTAVYYCNRFPPRRYYARYYSWGQGTQVTVSS | high polyreactivity
* QFQLVESGGGLDQAGGSLRLSCAASGRTFAYYALGWYRQAPGKESELVAAISSGGGSTYYADSVKGRFTISRDNAKYTFYLQMNSLKPEDTAVYYCAKERSSSRSGGTYYYWGQGTQVTVSS | high polyreactivity
* QVQLVESGGGLVQAGGSLRLSCAASGRTFAFNAMGWYRQAPGKERELVATISWSGGSTYYADSVKGRFTISRDNAKNTVYLQMNSLKPEDTAVYYCGAEYVVYRYRLYGTVAYDYWGQGTQVTVSS | high polyreactivity
* QVQLVESGGGLVQAGGSLGLSCAASGFTFHNYAMGWYRQAPGKERELVAAITWDGGSTYYAVSVKGRFTISRDKAKNTVDLQMNSLKPEDTAVYYCALDPYYYYYGDYNFDYWGQGTQVTVSS | high polyreactivity

Request: I would be grateful if you could share the reported polyreactivity (PSR sort gate) for QVQLVESGGGLVQAGGSLRLICAASGRTFYWNAMGWYRQAPGKERELVAAISDGGGSTYYADSVKGRFTISRDNAKNTVYLQMNSLKPEDTAVYYCNTPDNQDKPYPGYDYWGQGTQVTVSS .
Response: low polyreactivity

Request: I would be grateful if you could share the reported polyreactivity (PSR sort gate) for QVQLVESGGGLVQAGGSLRLSCAASVISFARNVMGWYRQATGKERELVAGISRRGGSTYYADSVKGRFTISRDNAKNTVYLQMNSLKPEDTAVYYCAAEYIRNGDYGLDYWGQGTQVTVSS .
Response: high polyreactivity

Request: I would be grateful if you could share the reported polyreactivity (PSR sort gate) for QVQLVESGGGLVQAGGSLRLSCAASGSTFSVYAMGWYRQAPGKERELVAAISSSGANTYYADSVKGRFTISRDNAKNTVYLQMNSLKPEDTAVYYCAAYVSGGYEYDYWGQGTQVTVSS .
Response: low polyreactivity

Request: I would be grateful if you could share the reported polyreactivity (PSR sort gate) for QVQRVESGGGLVQAGGSLRLSCAASGNIFGYAMGWYRQAPGKERELVAAISRGGGTYYADSVKGRFTISRDNAKNTVYLQMNSLKPEDTADYYCAARLVKGYSRMNYWGQGTQVTVSS .
Response: high polyreactivity

Request: I would be grateful if you could share the reported polyreactivity (PSR sort gate) for QVQLVESGGGLVQAGGSLRLSCAASGRIFPVNDMGWYRQAPGKERELVASITYSGGSTYYADSVKGRFTISRDNAKNTVYLQMNSLKPEDTAVYYCAADDGSQYYFDSPHEYDYWGQGTQVTVSS .
Response: low polyreactivity

Request: I would be grateful if you could share the reported polyreactivity (PSR sort gate) for QVQLVESGGGLVQAGGSLRLSCAASGFIFYYNAMGWYRQAPGKERELVARISSGSGTYYADSVKGRFTISRDNAKNTVYLQMNSLKPEDTAVYYCAARYPRGAMYYWGQGTQVTVSS .
Response: low polyreactivity
